Entry source: patent US20240218057A1

- systemTested: T1, SARS-COV-2 RBD (SARS-COV-2, UniProt P0DTC2 319-539)
- T1 construct: also called WT RBD
- protocolDetails: ELISA, RBD coated on plate
reportedEndpoint: EC50 (ng/mL)
Respond numerically; units are ng/mL and should not be typed.

These recorded examples may help you get a feel for the data.
binder	EC50, ng/mL
C1032 (antibody, V domains shown) VH: EVQLVESGGSLVKPGGSLRLSCVASGLTFNHAWMSWVRQAPGKGLEWVGRIKSKIDGGTTDYAAPVKGRFTISRDDSKSTQYLQMNSLKTEDTAVYYCTTDCFWRLGGTTCYEHDAFDVWGQGTMVTVS VL: DIQMTQSPSSLSASVGDRVTITCRASQAIATFLNWYQQKPGKAPKLLIYAASSLQSGVPSRFSGSGSGTDFTLTISSLQPEDFATYYCQQSYNSLHFGGGTKVEIK	2.89
C986 (antibody, V domains shown) VH: EVQLVQSGAEVKKPGETLKISCKGSGDSFSNYWIGWVRQSPGKGLEWMAIVYPGDSDARYSPSFQGQVTISADKSVTTAYLKWSSLKASDTAIYYCVRGLPVDWYFDLWGRGTLVTVSS VL: QSVLTQPPSVSGAPEQRVTISCTGSSSNIGAGHDVHWYQQLPGTAPKLLIYNNNNRPSGVPDRFSGSKSGASASLAISGLQAEDEAEYYCQSYDKSLSVLYVLGTGTKVTV	3.36
C906 (antibody, V domains shown) VH: EVQLVESGGGLIKPGRSLRLSCTASGFTFGDYAMTWFRQAPGKGLEWVGFIRSKAYGGTTGYAASVKYRFTISRDDSKSIVYLQMDSLKTEDTAVYYCTRWDGWSQHDYWGQGTLVTVSS VL: DIVMTQSPLSLSVTPGEPASISCRSSQSLLHSNGINYFDWYLQKPGQSPQLLIYLGSNRASGVPDRFSGSGSGTDFTLKISRVEAEDVGVYYCMQVLQIPYTFGQGTKLEI	1.07
C999 (antibody, V domains shown) VH: QVQLVQSGAEVRRPGASVKVSCKASGYTLTHYYIHWVRQAPGQGLEWVGIINPDGDNTNYAQKFQGRVTMTRDTSTSTVYMELSSLRSEDTAIFYCARGGAIPALRSAFDIWGQGTMVTVSS VL: DIQMTQSPSTLSASVGDRVTITCRASQSINNWLAWYQQKPGKAPKLLIYKASTLESGVPSRFSGSGSGTEFTLTISSLQPDDFATYYCQQYNSYFFGQGTKLEIK	2.68
C983 (antibody, V domains shown) VH: QVQLVESGGGVVRPGRSLRLSCAASGFTFSKYGMHWVRQAPGKGLECVASIAYDGSDDSYADSVKGRFIISRDNSKNTLYLQMNSLRAADTAVYYCAKVLGSYCSASSCHGQRPDYWGQGTLVTVSS VL: DIQMTQSPSSLSAYVGDRVTITCQASQDISNHLNWYQQKPGKAPNLLIYDASNLETGVPSRFSGSGSGTDFSFTISSLQPEDIATYYCQQYDNVPPWTFGQGTKVEIK	2.11

IN: Identify the reported EC50 for the following entry. C907 (antibody, V domains shown) VH: QVQLQESGPGLVKPSETLSLTCTVSGGSITSYYWTWIRQSPGKGLEWIGYIYYIGSTNYNPSLKSRLTISLATSKNQFSLRLNSVTAADTAVYYCASYYNDTSGYSYGLDVWGQGTTVTVSS VL: DIQMTQSPSSLSAFVGDRVTITCRAGQSISSYLHWYQQKPGKAPKLLIYATSTLQSGVPSRFSGRGSGTDFTLTISGLQPEDFATYYCQQSYSTPQTFGQGTKVEIK
OUT: 3.71

IN: Identify the reported EC50 for the following entry. C949 (antibody, V domains shown) VH: QVQLQESGPGLVKPLQTLSLTCTVSGGSISNGDYYWSWIRQSPGKGLEWIGNIFYSGATYFNPSLKSRVTLSVDTSKNQFSLKLSSVTAADTAVYYCARVVRVLPAASVDCWGQGTLVTVSS VL: QSALTQPRSVSGSPGQSVPISCTGTSSDVGGYDYVSWYQQHPGKAPKLIIYDVSERPSGVPDRFSGSKSGNTASLTISGLQAEDEATYYCCSYAGTSVMFGGGTKLTVL
OUT: 2.33

IN: Identify the reported EC50 for the following entry. C1059 (antibody, V domains shown) VH: EVQLVESGGGLVQPGGSLRLSCAASGVTVSYNYMHWVRQAPGKGLEWVSVFFPGGSIFYADSVKGRFSISRDNSHNTLYLQMNNLRPEDTAVYYCARDFREGAIDLWGQGTMVTVSS VL: DIQLTQSPSFLSASVEDRVTITCRASQGISSYLAWYQQKPGKAPKLLIYGASTLQSGVPSRFSGSGSGTEFTLTISSLQPEDSATYYCQQLNSYPPLFGQGTRLEIK
OUT: 1.69

IN: Identify the reported EC50 for the following entry. C1008 (antibody, V domains shown) VH: EVQLVESGGGLIQPGGSLRLSCAASGFTVSSNYMSWVRQAPGKGLEWVSVIYSGGSTYYADSVKGRFTISRDNSKNTLYLQMNSLRAEDTAVYYCARVVGYDFWSGYDGGYFDYWGQGTLVTVSS VL: QSALTQPASVSGSPGQSITISCTGTSSDVGSYNLVSWYQQHPGKAPKLMIYEVSKRPSGVSNRFSGSKSGNTASLTISGLQAEDEADYYCCSYAGSSTWVFGGGTKLTVL
OUT: 17.2

IN: Identify the reported EC50 for the following entry. C909 (antibody, V domains shown) VH: QVQLVQSGAEVKKPGASVKVSCRASGYTFPNYDLNWVRQATGQGLEWMGWMNPNSGNTGYAQKFQGRITMTRITSISTAYMELSSLRSEDTAVYYCARGRANWNSNFLLDSWGQGTLVTVSS VL: QSALTQPASVSGSPGQSITISCTGTSSDVGGYNLVSWYQQYPGNVPKLMIYEDAKRPSGVSNRFSGSKSANTASLTISGLQAEDEADYYCCSYAGSSTRYVFGTGTKVTVL
OUT: 3.24
